system: Fibroblast; test: Multiplex assay against human fibroblast; format: toxicity, cell-based; conditions: 48 h, 10 µM, compound concentration 10 uM, replicate 2
ATTRIBUTE_MEASURED: Population Apoptotic (%)
Field: numeric (%). Do not append units.

## Task Under Fibroblast: report Population Apoptotic (%) of Cc1nc(Cc2cccc(C(F)(F)F)c2)sc1-c1ccc(C(N)=O)nc1 [TP-024n] .
## Result 25

## Task State measured Population Apoptotic (%) of the compound CC(=O)c1cc(-c2cc(C(=O)NC3CC3)ccc2C)c2ncccn12 with Fibroblast.
## Result 75

## Task Using Fibroblast as the test system, report measured Population Apoptotic (%) of COc1cc2c(NC3CCN(C(C)C)CC3)nc(N3CCC(F)(F)CC3)nc2cc1OCCCN1CCCC1 .
## Result 23

## Task State the measured Population Apoptotic (%) (Fibroblast) of CC(C)N1CCC(C)(C)c2cc(C#Cc3ccc(C(=O)O)cc3)ccc21
## Result 0

## Task Find Population Apoptotic (%) for COc1cc(N2CCC(N(C)C)CC2)ccc1Nc1ncc(Cl)c(Nc2ccccc2P(C)(C)=O)n1 on Fibroblast and write it down.
## Result 66

* * *

system: HEK-293T; assay: Multiplex assay against HEK293T; type: toxicity, cell-based; details: human, 48 h, 10 µM, compound concentration 10 uM, replicate 1
For each entry below, report its Population Mitotic Cells (%) value.
Write the number in % without appending the unit.

## Task // fetch Population Mitotic Cells (%) given entry Nc1ccc(C(=O)Nc2cccc(-c3nc(N4CCOCC4)c4oc5ncccc5c4n3)c2)cn1
## Result 24

## Task Return Population Mitotic Cells (%) (reported value) for this compound: CC(C)N1CCC(C)(C)c2cc(C#Cc3ccc(C(=O)O)cc3)ccc21
## Result 62

## Task Give reported Population Mitotic Cells (%) value for Cl.Cl.Nc1ncnc2c1c(-c1cccc(OCc3ccccc3)c1)cn2[C@H]1C[C@@H](CN2CCC2)C1
## Result 6

## Task Identify Population Mitotic Cells (%) associated with the compound CC(C)Oc1ccc(C(=O)N[C@H](CNC(=O)CN(C)C)Cc2ccc(-c3cn4cccc([C@H](C)O)c4n3)cc2)cc1Cl [GSK-923295A]
## Result 12

## Task Supply recorded Population Mitotic Cells (%) for Cc1nc(Cc2cccc(C(F)(F)F)c2)sc1-c1ccc(C(N)=O)nc1 [TP-024n] here.
## Result 46

## Task Give the measured Population Mitotic Cells (%) for O=C(O)c1ccc2cc(-c3ccc(O)c(C45CC6CC(CC(C6)C4)C5)c3)ccc2c1 [O-DEMETHYLATED ADAPALENE]
## Result 48

## Task Look up Population Mitotic Cells (%) of CNc1oc(-c2cccc3ccccc23)nc1C#N and report it.
## Result 85

## Task Provide measured Population Mitotic Cells (%) value, entry: COc1cc2c(NC3CCN(C(C)C)CC3)nc(N3CCC(F)(F)CC3)nc2cc1OCCCN1CCCC1
## Result 10

## Task Look up and report measured Population Mitotic Cells (%) for this entry: CCc1cc2c(cc1CC)CC(NC[C@H](O)c1ccc(O)c3[nH]c(=O)ccc13)C2 [INDACATEROL]
## Result 8

* * *

tested on: U2OS; assay: Multiplex assay against U2OS; assay type: toxicity, cell-based; conditions: human, 12 h, 1 µM, compound concentration 1 uM, replicate 2
The threshold is inclusive: Population Healthy Nuclei (%) of exactly 70% counts as T; values below receive F.

## Task Does Population Healthy Nuclei (%) meet or surpass 70% for Cl.Cl.NC1(c2ccc(-c3nc4ccn5c(=O)[nH]nc5c4cc3-c3ccccc3)cc2)CCC1 ?
## Result T

## Task Determine whether measured Population Healthy Nuclei (%) meets or exceeds 70% for CCc1cc2c(cc1CC)CC(NC[C@H](O)c1ccc(O)c3[nH]c(=O)ccc13)C2
## Result T

## Task Reported Population Healthy Nuclei (%) reaches at least 70% for Nc1ccc(C(=O)Nc2cccc(-c3nc(N4CCOCC4)c4oc5ncccc5c4n3)c2)cn1 ?
## Result F

## Task Test whether the compound CC(=O)c1cc(-c2cc(C(=O)NC3CC3)ccc2C)c2ncccn12 records Population Healthy Nuclei (%) of 70% or higher.
## Result T

## Task Reported Population Healthy Nuclei (%) reaches at least 70% for COc1cc2c(NC3CCN(C(C)C)CC3)nc(N3CCC(F)(F)CC3)nc2cc1OCCCN1CCCC1 ?
## Result F

## Task hey, is Population Healthy Nuclei (%) for this one >= 70%? CC(C)Oc1ccc(C(=O)N[C@H](CNC(=O)CN(C)C)Cc2ccc(-c3cn4cccc([C@H](C)O)c4n3)cc2)cc1Cl [GSK-923295A]
## Result F

* * *

Provide the recorded Population Normal (%) for the entries that follow.
test system: Fibroblast; assay: Multiplex assay against human fibroblast; type: toxicity, cell-based; settings: 12 h, 1 µM, compound concentration 1 uM, replicate 2
// return numeric value only (unit: %, not printed)

## Task Name the recorded Population Normal (%) of the compound listed here: CCCn1c(=O)c2[nH]c(C34CC5CC(CC3C5)C4)nc2n(CCC)c1=O [ROLOFYLLINE]
## Result 96

## Task Recall and state the measured Population Normal (%) for CC(C)(C)c1cnc(CSc2cnc(NC(=O)C3CCNCC3)s2)o1 [BMS-387032] .
## Result 62

## Task Identify Population Normal (%) associated with the compound CNc1oc(-c2cccc3ccccc23)nc1C#N
## Result 84

## Task Quickly give me recorded Population Normal (%) for Cl.Cl.NC1(c2ccc(-c3nc4ccn5c(=O)[nH]nc5c4cc3-c3ccccc3)cc2)CCC1
## Result 54

## Task Look up and report measured Population Normal (%) for this entry: N#Cc1cnc(Nc2cc(NC[C@H]3CNCCO3)c(C(F)(F)F)cn2)cn1 [SRA-737]
## Result 64

* * *

Exercise: state measured Population Fragmented Nuclei (%) for each of the compounds provided.
system: Fibroblast; test: Multiplex assay against human fibroblast; type: toxicity, cell-based; details: 12 h, 10 µM, compound concentration 10 uM, replicate 1
Lab book: enter the figure in %, no units written.

## Task Look up and report Population Fragmented Nuclei (%), with Fibroblast as system, for CCC(=O)O[C@]1(C(=O)SCF)[C@H](C)C[C@H]2[C@@H]3C[C@H](F)C4=CC(=O)C=C[C@]4(C)[C@@]3(F)[C@@H](O)C[C@@]21C [FLUTICASONE PROPIONATE]
## Result 26

## Task Write down the reported Population Fragmented Nuclei (%) (system: Fibroblast) of Cc1cc2c(cc1N1C(=O)c3cccc4c(CCCO)ccc(c34)C1=O)n(C)c(=O)n2C
## Result 21

## Task GET Population Fragmented Nuclei (%) where system = Fibroblast and item = CN(C)CCOc1ccc(-c2nc(-c3ccncc3)c(-c3ccc4c(c3)CC/C4=N\O)[nH]2)cc1
## Result 38

* * *

Give Population Pyknosed Nuclei (%) for every item shown.
tested on: HEK-293T; experiment: Multiplex assay against HEK293T; assay type: toxicity, cell-based; settings: human, 12 h, 1 µM, compound concentration 1 uM, replicate 1
Dear colleague, please return just the value in %, with no unit written.

## Task Provide Population Pyknosed Nuclei (%) value for the following compound: Cc1nc(Cc2cccc(C(F)(F)F)c2)sc1-c1ccc(C(N)=O)nc1 [TP-024n]
## Result 39

## Task Give me measured Population Pyknosed Nuclei (%), please, for this compound: CC(=O)c1cc(-c2cc(C(=O)NC3CC3)ccc2C)c2ncccn12
## Result 61

## Task Report Population Pyknosed Nuclei (%), nothing else, for this compound: CNC(=O)c1nn(C)c2c1C(C)(C)Cc1cnc(Nc3ccc(N4CCN(C)CC4)cc3)nc1-2 [MILCICLIB]
## Result 40

## Task Give the measured Population Pyknosed Nuclei (%) for CC(C)(C)c1cnc(CSc2cnc(NC(=O)C3CCNCC3)s2)o1 [BMS-387032]
## Result 27

## Task Identify Population Pyknosed Nuclei (%) associated with the compound CNc1oc(-c2cccc3ccccc23)nc1C#N
## Result 25

## Task Hello, please tell me recorded Population Pyknosed Nuclei (%) for this one: Cl.Cl.NC1(c2ccc(-c3nc4ccn5c(=O)[nH]nc5c4cc3-c3ccccc3)cc2)CCC1
## Result 17

## Task Please indicate Population Pyknosed Nuclei (%) recorded for CCC(=O)O[C@]1(C(=O)SCF)[C@H](C)C[C@H]2[C@@H]3C[C@H](F)C4=CC(=O)C=C[C@]4(C)[C@@]3(F)[C@@H](O)C[C@@]21C [FLUTICASONE PROPIONATE]
## Result 56

## Task Give the reported value of Population Pyknosed Nuclei (%) for this record: CCc1cc2c(cc1CC)CC(NC[C@H](O)c1ccc(O)c3[nH]c(=O)ccc13)C2 [INDACATEROL]
## Result 42

## Task Please list Population Pyknosed Nuclei (%) recorded for the compound Nc1ccc(C(=O)Nc2cccc(-c3nc(N4CCOCC4)c4oc5ncccc5c4n3)c2)cn1
## Result 60

## Task Fill in reported Population Pyknosed Nuclei (%) for this entry: c1ccc2oc(-c3csc(C4CCN(Cc5nc6ncccc6[nH]5)CC4)n3)cc2c1
## Result 37

## Task Give the value of Population Pyknosed Nuclei (%) reported for the following: CN(C)C/C=C/C(=O)Nc1cc2c(Nc3ccc(F)c(Cl)c3)ncnc2cc1O[C@H]1CCOC1.O=C(O)/C=C\C(=O)O.O=C(O)/C=C\C(=O)O [AFATINIB DIMALEATE]
## Result 22

## Task Give the reported value of Population Pyknosed Nuclei (%) for this record: COc1cc(N2CCC(N(C)C)CC2)ccc1Nc1ncc(Cl)c(Nc2ccccc2P(C)(C)=O)n1
## Result 18

## Task Provide one value: measured Population Pyknosed Nuclei (%) of CCOc1cc2ncc(C#N)c(Nc3ccc(OCc4cccc(F)c4)c(Cl)c3)c2cc1NC(=O)/C=C/CN(C)C [HKI-357]
## Result 21

## Task Give reported Population Pyknosed Nuclei (%) value for CNC(=O)c1cc(Oc2ccc(NC(=O)Nc3cc(C(C)(C)C)nn3-c3ccc4ncccc4c3)c(F)c2)ccn1 [REBASTINIB]
## Result 10

## Task Determine its reported Population Pyknosed Nuclei (%): Nc1nc2c(c(N3CCNCC3)n1)CCC1=C2[C@@H]2CCCC[C@@H]2O1
## Result 50

## Task Consider the compound N#Cc1cnc(Nc2cc(NC[C@H]3CNCCO3)c(C(F)(F)F)cn2)cn1 [SRA-737] and give its recorded Population Pyknosed Nuclei (%).
## Result 19

## Task Supply measured Population Pyknosed Nuclei (%) of CCn1c(-c2nonc2N)nc2cnc(Oc3cccc(NC(=O)c4ccc(OCCN5CCOCC5)cc4)c3)cc21 [GSK-269962A] in your reply.
## Result 58
